Test system: SK-MEL-5 melanoma
Assay: NCI-60 one-dose screen, 48 h
Settings: 10 µM unless noted
The panel holds about 83,000 compounds, 20% with a hit somewhere; the sample as a whole holds those more often. Active and inactive are the calls of the source. The calls were made as follows: active = growth percent below 10; inactive = the rest.
// classify into y = active, n = inactive

Req: Short answer needed: outcome of this test for O=C(c1ccc(OCCN2CCCCC2)cc1)c1c(-c2ccc(O)cc2)sc2cc(O)ccc12 ?
Resp: n

Req: Short answer needed: outcome of this test for N/C(=N\O)c1ncc(-c2ccc(C(F)(F)F)cc2)c(NC2CCCCCC2)n1 ?
Resp: y

Req: Short answer needed: outcome of this test for COc1ccc(C2c3cccn3-c3ccccc3N2C(C)=O)cc1 (centres undefined) ?
Resp: n

Req: Short answer needed: outcome of this test for COC(=O)c1ccc2c(c1)nc(-c1cc3ccccc3[nH]c1=O)n2-c1cc(C(C)(C)C)[nH]n1 ?
Resp: n

Req: Short answer needed: outcome of this test for COc1ccc2nc3ccccc3c(NCc3ccc(C)cc3)c2c1 ?
Resp: n

Req: Short answer needed: outcome of this test for COc1ccc(-n2nc(C(=O)Nc3ccc(F)cc3)nc2-c2cc(OC)c(OC)c(OC)c2)cc1 ?
Resp: n

Req: Short answer needed: outcome of this test for CCCCOc1nc2ccccc2cc1/C=C/c1cc(/C=C/c2cc3ccccc3nc2OCCCC)n(-c2ccccc2)n1 ?
Resp: n

Req: Short answer needed: outcome of this test for COc1cc2ncnc(Nc3ccc(S(=O)(=O)Nc4cc(C)on4)cc3)c2cc1OCCCN1CCN(c2ccc([N+](=O)[O-])cc2)CC1 ?
Resp: n

Req: Short answer needed: outcome of this test for O=c1oc2ccccc2cc1-c1cc(-c2ccc(-c3cc(-c4cc5ccccc5oc4=O)nc(-c4cc5ccccc5oc4=O)c3)cc2)cc(-c2cc3ccccc3oc2=O)n1 ?
Resp: n

====

System: SF-539 CNS
Assay: NCI-60 one-dose screen, 48 h (100 = growth as untreated, 0 = no growth, -100 = all killed)
Settings: 10 µM unless noted
Compounds without any hit were thinned out: in the full panel of roughly 83,000, 20% have a hit.
quantity.name: growth (%)
Output spec: scalar in %, unitless text.

Req: Give growth for C[C@@H]1N=C(c2ccc3ccccc3c2)Nc2nc3ccccn3c2C1=O
Resp: 37.2

Req: Give growth for O=C(O)c1ccccc1Oc1cc(-c2ccco2)nc(OCCN2CCOCC2)n1
Resp: 108

Req: Give growth for COc1cc2ncnc(Nc3ccc(S(=O)(=O)Nc4cc(C)on4)cc3)c2cc1OCCCN1CCN(c2ccc([N+](=O)[O-])cc2)CC1
Resp: 102

Req: Give growth for CCCCn1cnc2c(SCc3ccc([N+](=O)[O-])cc3)nc(N)nc21
Resp: 94.7

====

System: LOX IMVI melanoma
Test: NCI-60 one-dose screen, 48 h (100 = growth as untreated, 0 = no growth, -100 = all killed)
Conditions: 10 µM unless noted
This is part of a sample that, as a whole, favours compounds with a hit. Of some 83,000 tested, about 20% had one in any assay.
Mark rule met only for growth values smaller than 40%; exact matches and larger values are rule not met.

Req: Is growth of COc1ccc2c(c1)OC1=C(C(=O)OC1)C2c1cc(OC)c2c(c1)OCCO2 (centres undefined) strictly below 40%?
Resp: rule met

Req: Is growth of CCOC(=O)N1C2CCC(C2)N1C(=O)OCC strictly below 40%?
Resp: rule not met

Req: Is growth of COc1ccc(C(=O)OC2C(OC3C(O)COC(O[C@H]4C[C@H]5[C@@H]6CC=C7C[C@@H](O)CC[C@]7(C)[C@H]6CC[C@]5(C)[C@H]4[C@H](C)C(=O)CCC(C)C)C3OC(C)=O)OCC(O)C2O)cc1 (some centres undefined) strictly below 40%?
Resp: rule met

Req: Is growth of COc1ccc(CNc2c3ccccc3nc3ccccc23)cc1F strictly below 40%?
Resp: rule met

Req: Is growth of O=C1OCC2=C1C(c1ccccc1)c1cc3c(cc1N2CCO)OCO3 (centres undefined) strictly below 40%?
Resp: rule met

Req: Is growth of c1cc2c(cc1-c1cnc3nonc3n1)OCO2 strictly below 40%?
Resp: rule not met

Req: Is growth of CC1(C)CC(=O)c2cc3c(N)c(C(=O)Nc4ccc(Cl)cc4)sc3nc2C1 strictly below 40%?
Resp: rule not met

Req: Is growth of CC(C)(C)c1nn(-c2ccccc2)c2c1C(=O)CSC(c1ccc3c(c1)OCO3)N2 (centres undefined) strictly below 40%?
Resp: rule not met

Req: Is growth of CC(C)(C)c1cc(C[P+](c2ccccc2)(c2ccccc2)c2ccccc2)cc(C(C)(C)C)c1O strictly below 40%?
Resp: rule met

====

Test system: ACHN renal
Assay: NCI-60 one-dose screen, 48 h
Conditions: 10 µM unless noted
This is part of a sample that, as a whole, favours compounds with a hit. Of some 83,000 tested, about 20% had one in any assay. Active and inactive are the calls of the source. Rule for the calls: active = growth percent below 10; inactive = the rest.
// classify into TRUE for active, FALSE for inactive

Req: Short answer needed: outcome of this test for COc1ccc(C(=O)N2N=C(c3ccc(F)cc3)CC2c2cn(-c3ccccc3)nc2-c2ccccc2)cc1 (stereo not given) ?
Resp: FALSE

Req: Short answer needed: outcome of this test for O=c1c2cc(Br)cc(Br)c2nc(-c2ccc(Cl)cc2)n1/N=C\c1ccccc1F ?
Resp: FALSE

Req: Short answer needed: outcome of this test for CCOC(=O)c1cc(C(=O)OCC)c(C)nc1C ?
Resp: FALSE

Req: Short answer needed: outcome of this test for O=C(Nc1cccc(Cl)c1)Nc1ccccc1Cl ?
Resp: FALSE

Req: Short answer needed: outcome of this test for C=C1C(=O)O[C@H]2[C@H]1CC/C(COC(=O)NCc1[nH]nc3ccccc13)=C\CC[C@@]1(C)O[C@@H]21 ?
Resp: FALSE

Req: Short answer needed: outcome of this test for Cn1c(=O)c2c(nc(N/N=C/c3ccccc3Cl)n2C)n(C)c1=O ?
Resp: FALSE

Req: Short answer needed: outcome of this test for COc1cc(C2CC(c3ccc(Cl)cc3)=NN2C(C)=O)ccc1Oc1ccnc2cc(Cl)ccc12 (stereo not given) ?
Resp: FALSE

Req: Short answer needed: outcome of this test for Nc1c(N)c2ccccc2c2ccccc12 ?
Resp: FALSE

Req: Short answer needed: outcome of this test for COc1ccc2[nH]cc(C3(c4c[nH]c5ccc(OC)cc45)C(=O)Nc4ccc(F)cc43)c2c1 ?
Resp: FALSE

Req: Short answer needed: outcome of this test for C#CCO[C@H]1CC[C@H](OCC#C)[C@@H]2[C@H]1[C@H]1C[C@@H]3[C@@]4(C)CCC[C@@](C)(C(=O)OC)[C@@H]4CC[C@@]23C=C1C(C)C ?
Resp: FALSE

Req: Short answer needed: outcome of this test for CCOC(=O)N1C2CCC(C2)N1C(=O)OCC ?
Resp: FALSE

Req: Short answer needed: outcome of this test for CC(C)[C@@H]1C=C2CC[C@H]3[C@](C)(CN)CCC[C@]3(C)[C@H]2CC1 ?
Resp: FALSE

Req: Short answer needed: outcome of this test for CN(C)CCNC(=O)n1cc(-c2ccncc2)c(-c2cc(O)cc(Cl)c2)n1 ?
Resp: FALSE

Req: Short answer needed: outcome of this test for CCCCCc1c(C)[nH]c(/C=C2\N=C(c3ccc[nH]3)C=C2Oc2ccc(OC)cc2)c1C ?
Resp: TRUE

Req: Short answer needed: outcome of this test for CNCCCn1c2c(c3ccc(Cl)cc3c1=O)C(=O)c1cc(OC)cnc1-2 ?
Resp: FALSE

Req: Short answer needed: outcome of this test for CCCCCCCCCCCC1=NC(C)(C)CN1C(C)C ?
Resp: FALSE

Req: Short answer needed: outcome of this test for Cc1c(C(=O)Nc2ccccc2F)sc2c(=O)[nH]cnc12 ?
Resp: FALSE

Req: Short answer needed: outcome of this test for CC(C)[C@@]12C[C@@H](OC(=O)C3CO3)[C@@](C)(O1)[C@@H]1CC[C@@H](C)[C@H]1[C@@H]2OC(=O)/C=C/c1ccccc1 (stereo not given in full) ?
Resp: TRUE

Req: Short answer needed: outcome of this test for CCN1C(=O)N(CC)C2C1N=C(SC)N2/N=C/C=C/c1ccccc1OC (stereo not given) ?
Resp: FALSE

Req: Short answer needed: outcome of this test for Cc1c(C(=O)CCl)c(=O)n(-c2ccccc2)n1C ?
Resp: FALSE

====

Test system: MDA-MB-435 melanoma
Assay: NCI-60 one-dose screen, 48 h (100 = growth as untreated, 0 = no growth, -100 = all killed)
Conditions: 10 µM unless noted
The panel holds about 83,000 compounds, 20% with a hit somewhere; the sample as a whole holds those more often.
Field: growth. Provide a value for each of the compounds that follow.
Output spec: scalar in %, unitless text.

Req: Give growth for O=C(Nc1ccncc1)C(=O)c1cn(S(=O)(=O)c2cccc(Cl)c2F)c2ccccc12
Resp: 8.25

Req: Give growth for CCCCCCCCN=C(NCCCCCCCC)SCc1cccc2ccccc12
Resp: -95.6

Req: Give growth for CN(C)c1nc(-c2cccs2)n2nc(-c3ccco3)cc2n1
Resp: 104

Req: Give growth for C=C(C)[C@@H]1CC[C@]2(C(=O)NS(=O)(=O)c3ccccc3)CC[C@]3(C)[C@H](CC[C@@H]4[C@@]5(C)CC[C@H](OC(=O)NS(=O)(=O)c6ccccc6)C(C)(C)[C@@H]5CC[C@]43C)[C@@H]12
Resp: 12.8

Req: Give growth for COc1cccc(NC(=O)OC(C)C)c1
Resp: 92.8

Req: Give growth for N=C(N)c1ccc(-c2ccc(-c3ccco3)o2)cc1F
Resp: -59.1

Req: Give growth for CCSCC1CC(O)(c2ccccc2)C(c2ccccc2)C(c2ccc(F)cc2)O1 (stereo not given)
Resp: -18.8

Req: Give growth for O=C1/C=C/[C@@H](O)[C@@H]2C[C@@H](O)C[C@H]2/C=C/CCC[C@H]([C@@H](O)CO)O1
Resp: 83

Req: Give growth for ClC1=NC(Cl)C(Cl)=N/C1=N\c1ncn[nH]1 (stereo not given)
Resp: 13.8

Req: Give growth for O=c1c2cc(Cl)ccc2oc2ccc(OCCCCCN3CCCCC3)cc12
Resp: -24

Req: Give growth for COc1ccc(-c2nc3ccccc3n3cccc23)cc1
Resp: 126

Req: Give growth for COc1ccccc1CNCCCN1C(=O)c2ccc3c4c(ccc(c24)C1=O)C(=O)N(CCCCNCCCN)C3=O
Resp: -70

Req: Give growth for CCOC(=O)c1ccc(NC(=O)CSC(N)=O)cc1
Resp: 113

Req: Give growth for COC(=O)c1ccc2c(c1)nc(-c1ccc(Cl)cc1)n2-c1cc(C(C)(C)C)[nH]n1
Resp: -12.3

Req: Give growth for COC1(OC)C2(Cl)CCC1(Cl)C(Cl)=C2Cl
Resp: 99.9

Req: Give growth for COc1cc(OC)cc(-c2ccc(-c3ccc(C(=N)N)s3)s2)c1
Resp: -81.9

Req: Give growth for Cc1c(C(N)=O)sc2ncn(CC(=O)NN=C3CCCCC3)c(=O)c12
Resp: 99

Req: Give growth for CC(C)=CC[C@@H]1CC2(CC=C(C)C)C(=O)C(OC3(C(=O)c4ccccc4)C(=O)C4(CC=C(C)C)C[C@@H](CC=C(C)C)C(C)(C)C(CC=C(C)C)(C4=O)C3=O)(C(=O)c3ccccc3)C(=O)C(CC=C(C)C)(C2=O)C1(C)C (stereo not given in full)
Resp: 6.28

Req: Give growth for O=[N+]([O-])c1ccc(N/N=C/c2ccccc2O)nc1
Resp: 46.8

Req: Give growth for NC(=O)c1ccc[n+](Cc2ccccc2)c1
Resp: 98.2
